Biological target: USP7 (Homo sapiens, UniProt Q93009)
Construct: USP7, construct USP7 (208-1102) 6*His, Viva Biotech; 6xHis (C); purchased Viva Biotech
Sequence (Q93009 208-1102): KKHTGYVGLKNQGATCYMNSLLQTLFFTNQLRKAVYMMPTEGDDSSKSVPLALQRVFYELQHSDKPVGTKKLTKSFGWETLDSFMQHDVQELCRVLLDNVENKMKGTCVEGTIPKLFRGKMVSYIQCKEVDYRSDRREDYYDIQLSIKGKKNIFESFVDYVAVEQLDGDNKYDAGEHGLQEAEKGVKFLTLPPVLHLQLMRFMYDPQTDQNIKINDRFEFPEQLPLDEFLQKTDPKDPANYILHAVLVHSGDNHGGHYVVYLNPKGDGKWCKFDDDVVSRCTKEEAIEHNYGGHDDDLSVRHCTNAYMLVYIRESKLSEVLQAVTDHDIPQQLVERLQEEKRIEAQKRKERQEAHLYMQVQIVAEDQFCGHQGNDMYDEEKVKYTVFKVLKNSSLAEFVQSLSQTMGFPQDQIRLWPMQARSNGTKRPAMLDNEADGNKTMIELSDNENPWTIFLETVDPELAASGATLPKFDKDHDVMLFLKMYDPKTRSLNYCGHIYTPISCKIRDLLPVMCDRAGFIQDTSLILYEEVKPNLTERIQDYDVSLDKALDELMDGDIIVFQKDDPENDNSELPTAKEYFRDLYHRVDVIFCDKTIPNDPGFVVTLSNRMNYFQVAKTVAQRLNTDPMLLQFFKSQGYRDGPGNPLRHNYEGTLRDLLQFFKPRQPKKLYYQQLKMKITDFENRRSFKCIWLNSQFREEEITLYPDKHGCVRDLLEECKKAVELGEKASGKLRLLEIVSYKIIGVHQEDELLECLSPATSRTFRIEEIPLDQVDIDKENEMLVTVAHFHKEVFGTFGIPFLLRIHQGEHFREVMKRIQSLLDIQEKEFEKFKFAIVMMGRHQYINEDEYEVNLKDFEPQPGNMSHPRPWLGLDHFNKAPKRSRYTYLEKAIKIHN
Experiment: USP7 Assay A (Ubitquin-Rhodamine 110 Assay)
Type: biochemical
Conditions: USP7 assay A and B (table does not say which assay per compound); read-out: USP7_IC50
Procedure: Each assay was performed in a final volume of 15 μL in assay buffer containing 20 mM Tris-HCl (pH 8.0, (1M Tris-HCl, pH 8.0 solution; Corning 46-031-CM)), 1 mM GSH (L-Glutathione reduced; Sigma #G4251), 0.03% BGG ([…], Sigma, #G7516-25G), and 0.01% Triton X-100 (Sigma, #T9284-10L). […] Fluorescence was read on the Envision (Excitation at 485 nm and Emission at 535 nm; Perkin Elmer) or on the PheraSTAR (Excitation at 485 nm and Emission at 535 nm; BMG Labtech). […]
pIC50: −log10 of the molar value.

| molecule | pIC50 |
| --- | --- |
| O=C(c1ccc(OC(F)F)cc1)N1CCC(O)(Cn2cnc3c(cnn3-c3ccccc3)c2=O)CC1 [Compound I-274] | 5.00 to 6.00 |
| COCCN(C)Cc1cccc(-n2ncc3c(=O)n(CC4(O)CCN(C(=O)C5CC5)CC4)cnc32)c1 [Compound I-449] | 5.00 to 6.00 |
| COc1ccc(Cl)cc1C(=O)N1CCC(O)(Cn2cnc3c(cnn3-c3ccccc3)c2=O)CC1 [Compound I-218] | 5.00 to 6.00 |
| CN1CCCCC1COc1cccc(-n2ncc3c(=O)n(CC4(O)CCN(C(=O)c5ccc(F)cc5)CC4)cnc32)c1 (centres unmarked) [Compound I-1314] | 6.00 to 6.70 |
| O=C(c1ccc(N2CCOCC2)nc1)N1CCC(O)(Cn2cnc3c(cnn3-c3ccc(F)cc3)c2=O)CC1 [Compound I-419] | 5.00 to 6.00 |
| COC1(C)CCN(c2cc(-n3ncc4c(=O)n(CC5(O)CCN(C(=O)C6CC6)CC5)cnc43)ccc2F)C1 (centres unmarked) [Compound I-633] | 5.00 to 6.00 |
| C#CC(=O)N(C)C1CC(C(=O)N2CCC(O)(Cn3cnc4c(cnn4-c4ccc(F)cc4)c3=O)CC2)C1 (centres unmarked) [Compound I-589] | 5.00 to 6.00 |
| C[S+]([O-])c1ccc(-n2ncc3c(=O)n(CC4(O)CCN(C(=O)c5ccc(F)cc5)CC4)cnc32)cc1 (single isomer, unassigned) [Compound I-995] | 5.00 to 6.00 |
| O=C(C1CC1)N1CCC(O)(Cn2cnc3c(cnn3-c3ccc(C4CCNCC4)cc3)c2=O)CC1 [Compound I-843] | 6.00 to 6.70 |
| CC1(O)CCN(c2cc(-n3ncc4c(=O)n(CC5(O)CCN(C(=O)C6CC6)CC5)cnc43)ccc2F)C1 (centres unmarked) [Compound I-636] | 6.00 to 6.70 |
| Cc1nc(C)c(C(=O)N2CCC(O)(Cn3cnc4c(cnn4-c4ccccc4)c3=O)CC2)s1 [Compound I-230] | 5.00 to 6.00 |
| O=C(c1ccc(Oc2ccccc2)cc1)N1CCC(O)(Cn2cnc3c(cnn3-c3ccc(F)cc3)c2=O)CC1 [Compound I-66] | 6.00 to 6.70 |
| Cc1ccc(-n2ncc3c(=O)n(CC4(O)CCN(C(=O)c5ccc(OC6CCC(O)CC6)cc5)CC4)cnc32)cc1 (centres unmarked) [Compound I-1141] | 5.00 to 6.00 |
| CC(C)c1ccc(-n2ncc3c(=O)n(CC4(O)CCN(C(=O)C5CC5)CC4)cnc32)cc1 [Compound I-27] | 5.00 to 6.00 |
